- System: HL-60 cells
- TEST DESCRIPTION: Cell viability resazurin assay, HL-60 cells
- Type: cell-based, human
- RECORDED CONDITIONS: 24 h incubation, 25 µM, ± SD
ENDPOINT LABEL: viability of HL-60 cells relative to control
Value and unit, in that order.

Example compounds with recorded viability of HL-60 cells relative to control:
- COMPOUND: "CCOP(OCC)OCC.O=C1C=CC(=O)[N-]1.[C-]#[O+].[Fe+2].c1cc[cH-]c1 [3a]"
  RESULT: "46.28 ± 0.82%"
- COMPOUND: "O=C1C=CC(=O)[N-]1.[C-]#[O+].[Fe+2].c1cc[cH-]c1.c1coc(P(c2ccco2)c2ccco2)c1 [2b, CpFe(CO)(P(Fu)3)(η^1-N-maleimidato)]"
  RESULT: "38.21 ± 0.22%"
- COMPOUND: "O=C1C=CC(=O)[N-]1.[C-]#[O+].[C-]#[O+].[Fe+2].c1cc[cH-]c1 [compound 1, CpFe(CO)2(η^1-N-maleimidato)]"
  RESULT: "37.45 ± 1.48%"
- COMPOUND: "O=C1C=CC(=O)[N-]1.[C-]#[O+].[Fe+2].c1cc[cH-]c1.c1ccc(OP(Oc2ccccc2)Oc2ccccc2)cc1 [3b, CpFe(CO)(P(OPh)3)(η^1-N-maleimidato)]"
  RESULT: "3.18 ± 0.36%"

// field: viability of HL-60 cells relative to control; key: O=C1C=CC(=O)[N-]1.[C-]#[O+].[Fe+2].c1cc[cH-]c1.c1ccc(P(c2ccccc2)c2ccccc2)cc1 [2a, CpFe(CO)(PPh3)(η^1-N-maleimidato)] ; value = 15.3 ± 1.21%

---

- Tested on: A549 cells
- TEST DESCRIPTION: Cell viability resazurin assay, A549 cells
- Type: cell-based, human
- RECORDED CONDITIONS: 24 h incubation, 0.5 µM, ± SD
Each record here notes measured viability of A549 cells relative to control.
Value and unit, in that order.

// field: viability of A549 cells relative to control; key: `O=C1C=CC(=O)[N-]1.[C-]#[O+].[C-]#[O+].[Fe+2].c1cc[cH-]c1` ; value = 75.31 ± 7.67%

// field: viability of A549 cells relative to control; key: `O=C1C=CC(=O)[N-]1.[C-]#[O+].[Fe+2].c1cc[cH-]c1.c1coc(P(c2ccco2)c2ccco2)c1` ; value = 81.57 ± 14.09%

// field: viability of A549 cells relative to control; key: `CCOP(OCC)OCC.O=C1C=CC(=O)[N-]1.[C-]#[O+].[Fe+2].c1cc[cH-]c1` ; value = 80.91 ± 12.58%

// field: viability of A549 cells relative to control; key: `O=C1C=CC(=O)[N-]1.[C-]#[O+].[Fe+2].c1cc[cH-]c1.c1ccc(OP(Oc2ccccc2)Oc2ccccc2)cc1` ; value = 91.38 ± 8.55%

// field: viability of A549 cells relative to control; key: `O=C1C=CC(=O)[N-]1.[C-]#[O+].[Fe+2].c1cc[cH-]c1.c1ccc(P(c2ccccc2)c2ccccc2)cc1` ; value = 73.24 ± 14.30%

---

- Test system: PBM cells
- TEST DESCRIPTION: Cell viability resazurin assay, PBM cells
- Type: cell-based, human
- RECORDED CONDITIONS: 2 h incubation, 50 µM, ± SD
ENDPOINT LABEL: viability of PBM cells relative to control (%)
// note: answer is a bare numeric in %

Example compounds with recorded viability of PBM cells relative to control:
- COMPOUND: "O=C1C=CC(=O)[N-]1.[C-]#[O+].[Fe+2].c1cc[cH-]c1.c1ccc(P(c2ccccc2)c2ccccc2)cc1 [2a, CpFe(CO)(PPh3)(η^1-N-maleimidato)]"
  MEASURED TARGET: "PBM cells"
  RESULT NUMBER: 102.7
- COMPOUND: "CCOP(OCC)OCC.O=C1C=CC(=O)[N-]1.[C-]#[O+].[Fe+2].c1cc[cH-]c1 [3a]"
  MEASURED TARGET: "PBM cells"
  RESULT NUMBER: 98.5
- COMPOUND: "O=C1C=CC(=O)[N-]1.[C-]#[O+].[Fe+2].c1cc[cH-]c1.c1coc(P(c2ccco2)c2ccco2)c1 [2b, CpFe(CO)(P(Fu)3)(η^1-N-maleimidato)]"
  MEASURED TARGET: "PBM cells"
  RESULT NUMBER: 79.21
- COMPOUND: "O=C1C=CC(=O)[N-]1.[C-]#[O+].[Fe+2].c1cc[cH-]c1.c1ccc(OP(Oc2ccccc2)Oc2ccccc2)cc1 [3b, CpFe(CO)(P(OPh)3)(η^1-N-maleimidato)]"
  MEASURED TARGET: "PBM cells"
  RESULT NUMBER: 100.03

From here, focus on the item given below.
Item O=C1C=CC(=O)[N-]1.[C-]#[O+].[C-]#[O+].[Fe+2].c1cc[cH-]c1 [compound 1, CpFe(CO)2(η^1-N-maleimidato)] was tested on PBM cells; the reported viability of PBM cells relative to control is 100.66

---

- Test system: HL-60 cells
- TEST DESCRIPTION: Cell viability resazurin assay, HL-60 cells
- Assay type: cell-based, human
- RECORDED CONDITIONS: 2 h incubation, 5 µM, ± SD
Each record here notes measured viability of HL-60 cells relative to control.
// note: answer is a bare numeric in %

Example molecules with recorded viability of HL-60 cells relative to control:
- SMILES STRUCTURE: "O=C1C=CC(=O)[N-]1.[C-]#[O+].[Fe+2].c1cc[cH-]c1.c1ccc(OP(Oc2ccccc2)Oc2ccccc2)cc1"
  UNIT STRING: "%"
  RESULT NUMBER: 116.45
- SMILES STRUCTURE: "CCOP(OCC)OCC.O=C1C=CC(=O)[N-]1.[C-]#[O+].[Fe+2].c1cc[cH-]c1"
  UNIT STRING: "%"
  RESULT NUMBER: 100.13

// field: viability of HL-60 cells relative to control; key: `O=C1C=CC(=O)[N-]1.[C-]#[O+].[C-]#[O+].[Fe+2].c1cc[cH-]c1` ; value = 97.79

// field: viability of HL-60 cells relative to control; key: `O=C1C=CC(=O)[N-]1.[C-]#[O+].[Fe+2].c1cc[cH-]c1.c1coc(P(c2ccco2)c2ccco2)c1` ; value = 104.72

// field: viability of HL-60 cells relative to control; key: `O=C1C=CC(=O)[N-]1.[C-]#[O+].[Fe+2].c1cc[cH-]c1.c1ccc(P(c2ccccc2)c2ccccc2)cc1` ; value = 108.69

---

- System: PBM cells
- TEST DESCRIPTION: Cell viability resazurin assay, PBM cells
- Format: cell-based, human
- RECORDED CONDITIONS: 2 h incubation, 10 µM, ± SD
Each record here notes measured viability of PBM cells relative to control.
// note: answer is a bare numeric in %

Example compounds with recorded viability of PBM cells relative to control:
- COMPOUND: "O=C1C=CC(=O)[N-]1.[C-]#[O+].[Fe+2].c1cc[cH-]c1.c1coc(P(c2ccco2)c2ccco2)c1 [2b, CpFe(CO)(P(Fu)3)(η^1-N-maleimidato)]"
  RESULT NUMBER: 96.53
- COMPOUND: "O=C1C=CC(=O)[N-]1.[C-]#[O+].[Fe+2].c1cc[cH-]c1.c1ccc(P(c2ccccc2)c2ccccc2)cc1 [2a, CpFe(CO)(PPh3)(η^1-N-maleimidato)]"
  RESULT NUMBER: 101.13
- COMPOUND: "CCOP(OCC)OCC.O=C1C=CC(=O)[N-]1.[C-]#[O+].[Fe+2].c1cc[cH-]c1 [3a]"
  RESULT NUMBER: 89.89
- COMPOUND: "O=C1C=CC(=O)[N-]1.[C-]#[O+].[C-]#[O+].[Fe+2].c1cc[cH-]c1 [compound 1, CpFe(CO)2(η^1-N-maleimidato)]"
  RESULT NUMBER: 101.49

From here, focus on the item given below.
// field: viability of PBM cells relative to control; key: O=C1C=CC(=O)[N-]1.[C-]#[O+].[Fe+2].c1cc[cH-]c1.c1ccc(OP(Oc2ccccc2)Oc2ccccc2)cc1 [3b, CpFe(CO)(P(OPh)3)(η^1-N-maleimidato)] ; value = 99.06

---

Each record here notes measured viability of A549 cells relative to control.
- Tested on: A549 cells
- TEST DESCRIPTION: Cell viability resazurin assay, A549 cells
- Assay type: cell-based, human
- RECORDED CONDITIONS: 24 h incubation, 5 µM, ± SD
// note: answer is a bare numeric in %

Example compounds with recorded viability of A549 cells relative to control:
- COMPOUND: "O=C1C=CC(=O)[N-]1.[C-]#[O+].[Fe+2].c1cc[cH-]c1.c1coc(P(c2ccco2)c2ccco2)c1 [2b, CpFe(CO)(P(Fu)3)(η^1-N-maleimidato)]"
  MEASURED TARGET: "A549 cells"
  RESULT NUMBER: 61.87
- COMPOUND: "O=C1C=CC(=O)[N-]1.[C-]#[O+].[C-]#[O+].[Fe+2].c1cc[cH-]c1 [compound 1, CpFe(CO)2(η^1-N-maleimidato)]"
  MEASURED TARGET: "A549 cells"
  RESULT NUMBER: 104.37
- COMPOUND: "O=C1C=CC(=O)[N-]1.[C-]#[O+].[Fe+2].c1cc[cH-]c1.c1ccc(P(c2ccccc2)c2ccccc2)cc1 [2a, CpFe(CO)(PPh3)(η^1-N-maleimidato)]"
  MEASURED TARGET: "A549 cells"
  RESULT NUMBER: 65.32
- COMPOUND: "O=C1C=CC(=O)[N-]1.[C-]#[O+].[Fe+2].c1cc[cH-]c1.c1ccc(OP(Oc2ccccc2)Oc2ccccc2)cc1 [3b, CpFe(CO)(P(OPh)3)(η^1-N-maleimidato)]"
  MEASURED TARGET: "A549 cells"
  RESULT NUMBER: 80.46

From here, focus on the item given below.
// field: viability of A549 cells relative to control; key: CCOP(OCC)OCC.O=C1C=CC(=O)[N-]1.[C-]#[O+].[Fe+2].c1cc[cH-]c1 [3a] ; value = 68.55
